The values you see were collected from patent EP1220852B1.

# experimental.system: LFA-1/ICAM-1 (Homo sapiens, UniProt P05107+P20701)
# Construct: endogenous in cells; host or cells: LFA-1: endogenous protein purified from JY cells (human lymphoblastoid B cell line); ICAM-1-Cκ fusion: made in house with the baculovirus system
# Sequence (P20701 26-1170): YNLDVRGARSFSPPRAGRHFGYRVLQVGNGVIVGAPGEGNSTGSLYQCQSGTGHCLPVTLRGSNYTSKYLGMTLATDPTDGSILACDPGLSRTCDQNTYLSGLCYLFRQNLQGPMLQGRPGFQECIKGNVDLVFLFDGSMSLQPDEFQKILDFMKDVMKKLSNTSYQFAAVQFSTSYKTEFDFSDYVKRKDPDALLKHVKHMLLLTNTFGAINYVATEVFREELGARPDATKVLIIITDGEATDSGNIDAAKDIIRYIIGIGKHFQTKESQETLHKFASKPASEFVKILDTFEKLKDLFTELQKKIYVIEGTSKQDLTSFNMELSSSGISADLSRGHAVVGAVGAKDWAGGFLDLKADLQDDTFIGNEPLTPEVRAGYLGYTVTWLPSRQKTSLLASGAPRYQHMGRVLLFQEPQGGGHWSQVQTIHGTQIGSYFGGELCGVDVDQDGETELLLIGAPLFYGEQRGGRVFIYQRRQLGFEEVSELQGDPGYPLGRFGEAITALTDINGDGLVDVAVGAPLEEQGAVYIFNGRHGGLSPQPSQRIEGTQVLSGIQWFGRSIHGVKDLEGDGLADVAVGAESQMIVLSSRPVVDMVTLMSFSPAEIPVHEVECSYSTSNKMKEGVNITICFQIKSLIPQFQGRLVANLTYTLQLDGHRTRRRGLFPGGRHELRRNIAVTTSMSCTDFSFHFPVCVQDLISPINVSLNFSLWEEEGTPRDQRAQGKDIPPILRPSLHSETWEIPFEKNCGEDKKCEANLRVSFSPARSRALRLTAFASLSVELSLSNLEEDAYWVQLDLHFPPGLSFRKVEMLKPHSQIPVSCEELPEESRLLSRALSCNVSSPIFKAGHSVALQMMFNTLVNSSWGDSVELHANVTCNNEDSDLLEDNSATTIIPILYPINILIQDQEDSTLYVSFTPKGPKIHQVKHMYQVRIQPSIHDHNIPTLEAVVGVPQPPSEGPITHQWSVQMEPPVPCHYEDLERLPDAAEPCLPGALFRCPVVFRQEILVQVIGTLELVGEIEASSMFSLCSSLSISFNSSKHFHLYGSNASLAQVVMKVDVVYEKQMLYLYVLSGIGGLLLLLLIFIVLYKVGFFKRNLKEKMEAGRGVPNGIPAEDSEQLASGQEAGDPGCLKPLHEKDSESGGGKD
# Sequence (P05107 23-769): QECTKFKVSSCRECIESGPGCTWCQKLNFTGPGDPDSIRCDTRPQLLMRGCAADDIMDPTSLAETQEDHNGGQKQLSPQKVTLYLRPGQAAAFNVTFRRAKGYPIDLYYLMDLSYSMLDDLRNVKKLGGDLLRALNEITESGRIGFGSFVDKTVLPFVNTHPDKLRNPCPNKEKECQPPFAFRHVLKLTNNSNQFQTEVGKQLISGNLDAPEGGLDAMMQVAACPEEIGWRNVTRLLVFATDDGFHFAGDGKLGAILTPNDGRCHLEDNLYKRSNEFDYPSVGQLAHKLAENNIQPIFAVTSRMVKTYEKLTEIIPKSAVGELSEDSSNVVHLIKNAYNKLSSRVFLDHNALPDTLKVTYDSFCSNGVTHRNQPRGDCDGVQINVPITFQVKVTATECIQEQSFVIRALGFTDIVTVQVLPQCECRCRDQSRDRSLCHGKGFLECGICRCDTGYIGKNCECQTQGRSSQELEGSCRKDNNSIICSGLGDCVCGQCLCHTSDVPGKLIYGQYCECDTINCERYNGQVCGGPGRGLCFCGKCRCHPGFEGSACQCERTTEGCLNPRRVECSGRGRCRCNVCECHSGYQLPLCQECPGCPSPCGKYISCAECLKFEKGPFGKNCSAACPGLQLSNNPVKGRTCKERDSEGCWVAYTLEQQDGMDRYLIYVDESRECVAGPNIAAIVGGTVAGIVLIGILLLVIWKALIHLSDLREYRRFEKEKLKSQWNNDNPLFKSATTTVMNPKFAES
# assay: Cell free assay: binding of soluble human ICAM-1 to immobilized human LFA-1
measured.endpoint: IC50 (nM)
Give bare numbers, in nM.

-- ask Consider the compound shown here: C[C@@H]1CCN([C@H](Cc2cccc3ccccc23)C(N)=O)C(=O)[C@H](c2ccccc2)N1C(=O)Cc1ccc2ncccc2c1 What is its recorded IC50?
-- reply 70
